Molecular target: PTP1B (Homo sapiens)
Test: PTP1B enzyme kinetic analysis
Type: biochemical
Details: PTP1B Ki value, Kiu, secondary plot
value.kind: pKi
Note: pKi values are expressed as the negative base-10 logarithm of concentration in M.

The recorded pKi with PTP1B (Homo sapiens) for `O=c1oc(-c2ccc(O)c(O)c2)cc2cccc(O)c12` was 5.26

###

Target: PTP1B (Homo sapiens, UniProt P18031)
Sequence (P18031 whole entry): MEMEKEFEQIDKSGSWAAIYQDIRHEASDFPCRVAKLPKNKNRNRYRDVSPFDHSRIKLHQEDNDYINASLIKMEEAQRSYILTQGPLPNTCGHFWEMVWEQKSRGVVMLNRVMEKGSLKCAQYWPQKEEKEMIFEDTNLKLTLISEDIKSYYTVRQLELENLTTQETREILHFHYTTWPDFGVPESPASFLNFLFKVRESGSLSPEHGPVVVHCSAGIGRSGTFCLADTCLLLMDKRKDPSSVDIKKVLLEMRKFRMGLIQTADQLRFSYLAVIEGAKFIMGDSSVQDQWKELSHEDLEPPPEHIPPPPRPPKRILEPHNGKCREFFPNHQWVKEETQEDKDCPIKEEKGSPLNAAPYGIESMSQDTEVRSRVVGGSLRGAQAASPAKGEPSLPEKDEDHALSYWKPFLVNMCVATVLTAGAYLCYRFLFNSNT
Test: PTP1B enzyme kinetic analysis
Assay type: biochemical
Conditions: PTP1B Ki value, Kic, secondary plot
value.kind: pKi
As a rule, pKi stands for the negative log10 of the concentration, concentration in M.

According to the records, this molecule O=c1oc(-c2ccc(O)c(O)c2)cc2cccc(O)c12 [Compound 12, Thunberginol A] displays pKi of 4.91
